The following binders are listed with their measured pIC50 values.
- system under test: T1, recombinant biotinylated human PAR2 extracellular domain (residues 1-75), N-terminal AviTag, C-terminal Flag … (human, UniProt P55085 26-75, biotin on the AviTag (enzymatic biotinylation))
- T1 construct: also called Bio-human-PAR2 ECD; human PAR2 ECD; not shown: N-terminal AviTag (Avidity LLC); C-terminal Flag and poly Histidine tags
- T1 sequence (P55085 26-75): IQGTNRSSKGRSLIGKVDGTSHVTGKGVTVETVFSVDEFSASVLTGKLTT
- protocol summary: HTRF competition with Par0067 IgG, pH 7.4, scFv
Scale note: pIC50 = -log10(concentration in M).

# annotated cases, reported pIC50 shown
PaB670101 scFv (scFv, V domains shown, purified scFv; also called ZZ1ODO-H01) VH: EVQLLESGGGLVQPGGSLRLSCAASGFTFSSYAMNWVRQAPGKGLEWVSTISYSGSLISYADSVKGRFTISRDNSKNTLYLQMNSLRAEDTAVYYCARIHHHPHDHWGQGTLVTVSS VL: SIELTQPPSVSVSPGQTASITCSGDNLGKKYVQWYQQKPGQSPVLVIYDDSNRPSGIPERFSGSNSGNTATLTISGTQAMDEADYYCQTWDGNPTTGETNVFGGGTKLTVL :: 6.83
PaB670081 scFv (scFv, V domains shown, purified scFv; also called ZZ1OZA-C01) VH: EVQLLESGGGLVQPGGSLRLSCAASGFTFSSYAMNWVRQAPGKGLEWVSTISHSGHHISHHDSHHGRFTISRDNSKNTLYLQMNSLRAEDTAVYYCARINNDPMDVWGQGTLVTVSS VL: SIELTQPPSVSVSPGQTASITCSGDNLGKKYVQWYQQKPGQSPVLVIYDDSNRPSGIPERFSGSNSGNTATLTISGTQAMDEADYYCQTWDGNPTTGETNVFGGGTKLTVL :: 7.29

Consider PaB670104 scFv (scFv, V domains shown, purified scFv) VH: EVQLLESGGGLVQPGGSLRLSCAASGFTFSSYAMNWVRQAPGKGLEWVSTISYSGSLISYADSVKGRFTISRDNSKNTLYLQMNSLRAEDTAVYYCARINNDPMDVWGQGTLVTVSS VL: SIELTQPPSVSVSPGQTASITCSGDNLGKKYVQWYQQKPGQSPVLVIYDDSNRPSGIPERFSGSNSGNTATLTISGTQAMDEADYYCQHWDGHHHTGETNVFGGGTKLTVL . Its measured pIC50 is 7.66
